All values here come from paper PMC6009956.

Experimental target: EGFR (Homo sapiens)
Sequence (P00533 25-1210): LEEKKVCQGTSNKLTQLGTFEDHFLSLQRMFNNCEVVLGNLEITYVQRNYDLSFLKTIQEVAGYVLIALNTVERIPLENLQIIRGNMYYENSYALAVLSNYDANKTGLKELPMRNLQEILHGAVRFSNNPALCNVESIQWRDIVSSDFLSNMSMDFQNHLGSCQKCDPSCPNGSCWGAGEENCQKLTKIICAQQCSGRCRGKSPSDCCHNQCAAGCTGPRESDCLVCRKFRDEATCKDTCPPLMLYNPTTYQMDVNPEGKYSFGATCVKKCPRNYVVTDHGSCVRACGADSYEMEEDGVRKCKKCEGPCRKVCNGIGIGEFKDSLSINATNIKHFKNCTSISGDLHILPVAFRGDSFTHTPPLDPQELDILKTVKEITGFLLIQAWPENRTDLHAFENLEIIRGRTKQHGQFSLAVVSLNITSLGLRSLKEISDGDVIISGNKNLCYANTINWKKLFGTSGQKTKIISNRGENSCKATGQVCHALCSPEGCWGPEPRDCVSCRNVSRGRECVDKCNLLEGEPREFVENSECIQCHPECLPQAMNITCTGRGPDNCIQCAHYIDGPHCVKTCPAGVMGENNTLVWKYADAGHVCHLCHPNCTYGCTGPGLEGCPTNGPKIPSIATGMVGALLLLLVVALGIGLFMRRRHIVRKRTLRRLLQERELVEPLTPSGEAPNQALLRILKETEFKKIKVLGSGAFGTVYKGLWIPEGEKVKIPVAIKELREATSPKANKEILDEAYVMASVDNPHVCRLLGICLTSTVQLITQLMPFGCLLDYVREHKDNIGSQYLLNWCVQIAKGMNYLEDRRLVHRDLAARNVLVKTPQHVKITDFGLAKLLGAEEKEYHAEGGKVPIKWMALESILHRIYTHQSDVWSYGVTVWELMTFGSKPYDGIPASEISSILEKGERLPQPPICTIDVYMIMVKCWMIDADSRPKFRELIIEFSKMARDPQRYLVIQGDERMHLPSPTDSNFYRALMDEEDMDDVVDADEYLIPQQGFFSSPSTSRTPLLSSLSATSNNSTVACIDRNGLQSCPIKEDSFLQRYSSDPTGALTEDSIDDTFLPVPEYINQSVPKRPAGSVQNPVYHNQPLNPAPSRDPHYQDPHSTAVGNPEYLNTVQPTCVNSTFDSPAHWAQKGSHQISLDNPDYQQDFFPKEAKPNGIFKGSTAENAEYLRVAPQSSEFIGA
Method: ADP-Glo kinase assay, EGFR
Format: biochemical
Set-up: purchased BPS Bioscience (assay run externally by the vendor)
Settings: Log[nM] 3.0; Set3
Measured endpoint: EGFR % Activity Set3 (%)

Past entries and their recorded results:
- Given smiles: "c1ccc(Cc2ccc(Nc3ncnc4[nH]ccc34)cc2)cc1"
  Output unit: "%"
  Value reported: 9
- Given smiles: "Clc1ccc(Nc2ncnc3[nH]ccc23)cc1Br"
  Output unit: "%"
  Value reported: 2
- Given smiles: "Fc1cc(Nc2ncnc3[nH]ccc23)ccc1Cl"
  Output unit: "%"
  Value reported: 2
- Given smiles: "Clc1ccc(Nc2ncnc3[nH]ccc23)cc1Cl"
  Output unit: "%"
  Value reported: 2

P: Nc1nc(Nc2cccc(Br)c2)c2cc[nH]c2n1
Q: Clc1ccc(Nc2ncnc3[nH]ccc23)cc1
R: Cc1cccc(Nc2ncnc3[nH]ccc23)c1
S: COc1ccc(Nc2ncnc3[nH]ccc23)cc1
QUERY: Please put the entries in order of rising EGFR % Activity Set3. # format: label list in the order the request specifies
RESULT: R, Q, P, S
(R: 5%, Q: 12%, P: 27%, S: 78%)

I: c1ccc(Nc2ncnc3[nH]ccc23)cc1
II: Clc1cccc(Nc2ncnc3[nH]ccc23)c1
III: Clc1ccccc1Nc1ncnc2[nH]ccc12
QUERY: Hey, quick one: sort these by EGFR % Activity Set3, low to high? Output spec: a listing of the labels in the requested order.
RESULT: II, I, III
